Data provenance: the supplement of paper PMC3334620

Target: Hmlalpha2 (UniProt P0CY09)
Sequence: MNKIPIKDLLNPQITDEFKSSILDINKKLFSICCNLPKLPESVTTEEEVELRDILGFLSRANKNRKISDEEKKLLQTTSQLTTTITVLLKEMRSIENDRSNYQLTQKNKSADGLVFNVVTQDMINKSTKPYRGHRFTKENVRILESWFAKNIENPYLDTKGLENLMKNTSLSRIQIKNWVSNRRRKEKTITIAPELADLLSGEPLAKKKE
Test: PBM E-score (8-mer binding enrichment) (E-score (-0.5 to 0.5)); higher = stronger / more preferred TF binding
Details: protein concentration: 200 nM; construct: GST-full length
Whole data set: some 33,000 sequences, median “E-score (-0.5 to 0.5)” near -0.04, cut for the highest 2% near 0.36. The sample holds the highest values, similar sequences and a random draw of the others, so the mix is not that of the screen.
Listed below: PBM E-score values for each entry.
endpoint.name: PBM E-score

item_sequence=CTTTGTAA number=0.414
item_sequence=AACGTGTG number=0.233
item_sequence=CCTGGACC number=-0.0273
item_sequence=TATTGTAA number=0.318
item_sequence=ATGTAGTC number=0.37
item_sequence=CCTTGTAC number=0.327
item_sequence=CCTTGTAA number=0.454
item_sequence=CCAAAAGG number=-0.136
item_sequence=CGGGCATC number=-0.287
item_sequence=TCTTGTAA number=0.439
item_sequence=AACGTGTC number=0.263
item_sequence=GTGTAGTA number=0.323
item_sequence=AATACACT number=0.326
item_sequence=ACTTGTAA number=0.381
item_sequence=CACGTGAA number=0.108
item_sequence=AATACACA number=0.467
item_sequence=ATGTAGTA number=0.391
item_sequence=ACTTGTAG number=0.0979
item_sequence=GACACGAA number=0.2
item_sequence=TCTTGTCA number=0.219
item_sequence=ATCTGAGC number=-0.0204
item_sequence=CACAAACG number=0.241
item_sequence=AGCACGAT number=0.147
item_sequence=AATACTCA number=0.18
item_sequence=GGGGGGCA number=-0.328
item_sequence=AATTTCAC number=0.0769
item_sequence=GACACGAC number=0.394
item_sequence=ACGTATTA number=0.345
item_sequence=GACGTGAA number=-0.0003
item_sequence=CATACCAA number=0.141

---

Biological target: Hmlalpha2 (UniProt P0CY09)
Sequence: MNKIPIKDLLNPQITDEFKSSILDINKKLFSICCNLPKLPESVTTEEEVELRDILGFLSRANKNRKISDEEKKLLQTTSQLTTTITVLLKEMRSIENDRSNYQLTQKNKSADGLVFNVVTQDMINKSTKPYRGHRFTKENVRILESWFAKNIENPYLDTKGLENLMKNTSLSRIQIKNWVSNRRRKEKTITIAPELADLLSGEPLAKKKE
Experiment: PBM E-score (8-mer binding enrichment) (E-score (-0.5 to 0.5)); higher = stronger / more preferred TF binding
Settings: protein concentration: 200 nM; construct: GST-full length
Over roughly 33,000 sequences, “E-score (-0.5 to 0.5)” has its median near -0.04; the highest 2% begin near 0.36. The full list was thinned out, with the highest values kept by preference.
Listed below: PBM E-score values for each entry.
endpoint.name: PBM E-score

item_sequence=CCGCAGTA number=-0.0882
item_sequence=ATGTAATC number=0.478
item_sequence=CGACTTTA number=0.134
item_sequence=CTGTAATC number=0.243
item_sequence=AAATGCAG number=-0.012
item_sequence=AATTGCGT number=0.201
item_sequence=TATCACGA number=0.00013

---

Target: Hmlalpha2 (UniProt P0CY09)
Sequence: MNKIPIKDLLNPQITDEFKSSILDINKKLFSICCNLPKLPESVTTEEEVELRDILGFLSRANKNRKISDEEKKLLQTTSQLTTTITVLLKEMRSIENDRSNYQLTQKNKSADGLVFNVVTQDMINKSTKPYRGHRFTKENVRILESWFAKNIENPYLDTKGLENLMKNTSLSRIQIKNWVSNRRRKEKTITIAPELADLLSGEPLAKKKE
Test: PBM E-score (8-mer binding enrichment) (E-score (-0.5 to 0.5)); higher = stronger / more preferred TF binding
Conditions: protein concentration: 200 nM; construct: GST-full length
In all, about 33,000 sequences were measured (“E-score (-0.5 to 0.5)”: median about -0.04, highest 2% from about 0.36 on). Many of the other results were omitted from the sample, so the highest values are more common in it than they were.
Parameter class (string): assigned from measured PBM E-score. Ranges: class 0 = under 0.2, class 1 = from 0.2 up to 0.4, class 2 = 0.4 and over

item_sequence=ATAACATC assigned_label="class 1"
item_sequence=CGTATGTA assigned_label="class 1"
item_sequence=AACACGCT assigned_label="class 1"
item_sequence=AGTACACC assigned_label="class 0"
item_sequence=GGTATGGA assigned_label="class 0"
item_sequence=TACACGCA assigned_label="class 2"
item_sequence=CGTACACG assigned_label="class 1"
item_sequence=CGTTTTTA assigned_label="class 1"
item_sequence=ACACAACA assigned_label="class 1"
item_sequence=GACACGCA assigned_label="class 1"
item_sequence=CGTACACA assigned_label="class 1"
item_sequence=ACCACGCT assigned_label="class 0"
item_sequence=GATTTACA assigned_label="class 2"
item_sequence=AGTACACG assigned_label="class 2"
item_sequence=AGCGTGTG assigned_label="class 1"
item_sequence=ATAACAGG assigned_label="class 0"
item_sequence=TATTTAGA assigned_label="class 1"
item_sequence=GGCGTGCA assigned_label="class 0"
item_sequence=AGTACACT assigned_label="class 0"
item_sequence=CACACGCA assigned_label="class 0"

---

Target: Hmlalpha2 (UniProt P0CY09)
Sequence: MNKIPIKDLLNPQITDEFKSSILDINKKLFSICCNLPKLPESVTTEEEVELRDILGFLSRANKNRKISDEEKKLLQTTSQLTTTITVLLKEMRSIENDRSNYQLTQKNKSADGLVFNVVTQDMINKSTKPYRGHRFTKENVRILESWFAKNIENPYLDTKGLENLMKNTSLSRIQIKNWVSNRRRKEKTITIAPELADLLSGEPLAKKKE
Experiment: PBM E-score (8-mer binding enrichment) (E-score (-0.5 to 0.5)); higher = stronger / more preferred TF binding
Conditions: protein concentration: 200 nM; construct: GST-full length
In all, about 33,000 sequences were measured (“E-score (-0.5 to 0.5)”: median about -0.04, highest 2% from about 0.36 on). The full list was thinned out, with the highest values kept by preference.
Listed below: PBM E-score values for each entry.
endpoint.name: PBM E-score

item_sequence=AGCTTGTG system="Hmlalpha2 (UniProt P0CY09)" number=0.11
item_sequence=TATGTAGA system="Hmlalpha2 (UniProt P0CY09)" number=0.424
item_sequence=ACGATGTC system="Hmlalpha2 (UniProt P0CY09)" number=0.0103
item_sequence=GGATTAGA system="Hmlalpha2 (UniProt P0CY09)" number=-0.216
item_sequence=AAAGGGAC system="Hmlalpha2 (UniProt P0CY09)" number=-0.2
item_sequence=AGAGTGTA system="Hmlalpha2 (UniProt P0CY09)" number=0.0904
item_sequence=ATGTAAAA system="Hmlalpha2 (UniProt P0CY09)" number=0.474
item_sequence=AAGCTACA system="Hmlalpha2 (UniProt P0CY09)" number=0.158
item_sequence=GGATTACC system="Hmlalpha2 (UniProt P0CY09)" number=-0.00329
item_sequence=TAATAACA system="Hmlalpha2 (UniProt P0CY09)" number=0.387
item_sequence=TCCCAGGA system="Hmlalpha2 (UniProt P0CY09)" number=-0.361
item_sequence=GAATAACA system="Hmlalpha2 (UniProt P0CY09)" number=0.39
item_sequence=GTGTCAAC system="Hmlalpha2 (UniProt P0CY09)" number=0.305
item_sequence=ACGTGTAA system="Hmlalpha2 (UniProt P0CY09)" number=0.482
item_sequence=TGGTAAAA system="Hmlalpha2 (UniProt P0CY09)" number=0.266
item_sequence=CAGTGTAG system="Hmlalpha2 (UniProt P0CY09)" number=0.243
item_sequence=CGTGTAGA system="Hmlalpha2 (UniProt P0CY09)" number=0.482
item_sequence=AGCTTGTA system="Hmlalpha2 (UniProt P0CY09)" number=0.379
item_sequence=AGCTAACG system="Hmlalpha2 (UniProt P0CY09)" number=0.117
item_sequence=AGGTAAAC system="Hmlalpha2 (UniProt P0CY09)" number=0.26
item_sequence=GTCTTGTA system="Hmlalpha2 (UniProt P0CY09)" number=0.306
item_sequence=AGCTGCAG system="Hmlalpha2 (UniProt P0CY09)" number=-0.168
item_sequence=TACGCTGA system="Hmlalpha2 (UniProt P0CY09)" number=0.122
item_sequence=ACCTTGTA system="Hmlalpha2 (UniProt P0CY09)" number=0.402
item_sequence=ATGCTGCA system="Hmlalpha2 (UniProt P0CY09)" number=0.0587
item_sequence=CCCTTGTA system="Hmlalpha2 (UniProt P0CY09)" number=0.328
item_sequence=ACCGACTG system="Hmlalpha2 (UniProt P0CY09)" number=-0.317
item_sequence=GAAGACAC system="Hmlalpha2 (UniProt P0CY09)" number=0.0337
item_sequence=CTTGAATC system="Hmlalpha2 (UniProt P0CY09)" number=-0.0387
item_sequence=TAATTACA system="Hmlalpha2 (UniProt P0CY09)" number=0.462
item_sequence=TGTGGGAA system="Hmlalpha2 (UniProt P0CY09)" number=0.00853
item_sequence=CTGATGTA system="Hmlalpha2 (UniProt P0CY09)" number=0.233
item_sequence=GCCTTGTA system="Hmlalpha2 (UniProt P0CY09)" number=0.33
item_sequence=ACGTGTAG system="Hmlalpha2 (UniProt P0CY09)" number=0.429
item_sequence=CCGTGTCG system="Hmlalpha2 (UniProt P0CY09)" number=0.233
item_sequence=AAGTGTAG system="Hmlalpha2 (UniProt P0CY09)" number=0.0742
item_sequence=GTGTTGCA system="Hmlalpha2 (UniProt P0CY09)" number=0.187
item_sequence=ATGTAAAC system="Hmlalpha2 (UniProt P0CY09)" number=0.483
item_sequence=CATGCGAC system="Hmlalpha2 (UniProt P0CY09)" number=0.0966
item_sequence=CAATAACA system="Hmlalpha2 (UniProt P0CY09)" number=0.239
item_sequence=CCGTGTAC system="Hmlalpha2 (UniProt P0CY09)" number=0.422
item_sequence=TACGGCCA system="Hmlalpha2 (UniProt P0CY09)" number=-0.262
item_sequence=GTGAAGAA system="Hmlalpha2 (UniProt P0CY09)" number=0.181
item_sequence=CGACCGAA system="Hmlalpha2 (UniProt P0CY09)" number=-0.0499
